Listed here are binders together with their documented Ki.
# system: 1_(1-117) (human), Q9H0R8
# Sequence (Q9H0R8 whole entry): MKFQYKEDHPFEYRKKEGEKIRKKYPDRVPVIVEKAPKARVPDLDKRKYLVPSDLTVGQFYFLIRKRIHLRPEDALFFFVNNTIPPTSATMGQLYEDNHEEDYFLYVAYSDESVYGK
# procedureSummary: FP
# studyConditions: modification not given

binder: SDNSSGGDDDWTHLSSK [p62-LIR]
Ki (µM): 5.5

binder: LNSGVEYYWDQLNETV [AMBRA1-LIR]
Ki (µM): 163

binder: AGLNSSWVELPMNSS [NIX-P2-LIR]
Ki (µM): 3.7

FYI, the data here is from paper PMC11589570.
